- Test system: hepatocytes
- TEST DETAILS: RNA-seq of hepatocytes treated with Phase III failure compounds
- CONDITION PARAMETERS: gene FGFR2; hepatocytes
OBSERVABLE: RNA-seq results: FGFR2 expression
Numbers only.

Reference set, count: 5
CCOC(=O)N1c2ccc(C(F)(F)F)cc2[C@@H](N(Cc2cc(C(F)(F)F)cc(C(F)(F)F)c2)C(=O)OC)C[C@H]1CC	0.15
COc1cc2c(Oc3ccc4[nH]c(C)cc4c3F)ncnc2cc1OCCCN1CCCC1	−0.16
CCC(CC)[C@H](NC(C)=O)[C@@H]1[C@H](O)[C@@H](C(=O)O)C[C@H]1NC(=N)N.O.O.O [peramivir (trihydrate), peramivir]	−0.42
COc1cc(Nc2ncc(F)c(Nc3ccc4c(n3)N(COP(=O)(O)O)C(=O)C(C)(C)O4)n2)cc(OC)c1OC	−1.3
C=CCNC1=C2C[C@@H](C)C[C@H](OC)[C@H](O)[C@@H](C)/C=C(\C)[C@H](OC(N)=O)[C@@H](OC)/C=C\C=C(/C)C(=O)NC(=CC1=O)C2=O	−2.48

For the 5 molecules below, give their RNA-seq results: FGFR2 expression values.
1. NC(=O)c1ccc(I)c([N+](=O)[O-])c1
2. Cn1cnc2c(F)c(Nc3ccc(Br)cc3Cl)c(C(=O)NOCCO)cc21
3. O=P(O)(NCCCl)NCCCl [Palifosfamide]
4. CCN(CC)CCN(Cc1ccc(-c2ccc(C(F)(F)F)cc2)cc1)C(=O)Cn1c(SCc2ccc(F)cc2)nc(=O)c2c1CCC2
5. COc1cc2nccc(Oc3ccc(NC(=O)Nc4cc(C)on4)c(Cl)c3)c2cc1OC

Ans:
[0.07, "−0.97", "−0.22", "−0.13", 0.36]

Q: Quick one: RNA-seq results: FGFR2 expression of Cn1cc(C2=C(c3cn(C4CCN(Cc5ccccn5)CC4)c4ccccc34)C(=O)NC2=O)c2ccccc21 ?
Ans: 0.75

----------
- Tested on: hepatocytes
- TEST DETAILS: RNA-seq of hepatocytes treated with Phase III failure compounds
- CONDITION PARAMETERS: gene GATA6; hepatocytes
OBSERVABLE: RNA-seq results: GATA6 expression
Give bare numbers.

Solved cases (2 shown):
CCOC(=O)N1c2ccc(C(F)(F)F)cc2[C@@H](N(Cc2cc(C(F)(F)F)cc(C(F)(F)F)c2)C(=O)OC)C[C@H]1CC [Torcetrapib]	0.17
COc1cc2c(Oc3ccc4[nH]c(C)cc4c3F)ncnc2cc1OCCCN1CCCC1 [Cediranib]	−0.1

Q: Value lookup for RNA-seq results: GATA6 expression; key = C=CCNC1=C2C[C@@H](C)C[C@H](OC)[C@H](O)[C@@H](C)/C=C(\C)[C@H](OC(N)=O)[C@@H](OC)/C=C\C=C(/C)C(=O)NC(=CC1=O)C2=O [17-MG (Tanespimycin), Tanespimycin]
Ans: −0.77

----------
Provide the recorded RNA-seq results, CYP3A4 expression for the entries that follow.
- Tested on: hepatocytes
- TEST DETAILS: RNA-seq of hepatocytes treated with Phase III failure compounds

The cases that follow already have their RNA-seq results, CYP3A4 expression on record.
COc1cc2c(Oc3ccc4[nH]c(C)cc4c3F)ncnc2cc1OCCCN1CCCC1	−0.75
CCOC(=O)N1c2ccc(C(F)(F)F)cc2[C@@H](N(Cc2cc(C(F)(F)F)cc(C(F)(F)F)c2)C(=O)OC)C[C@H]1CC	1.87
C=CCNC1=C2C[C@@H](C)C[C@H](OC)[C@H](O)[C@@H](C)/C=C(\C)[C@H](OC(N)=O)[C@@H](OC)/C=C\C=C(/C)C(=O)NC(=CC1=O)C2=O	2.50

Q: Which RNA-seq results, CYP3A4 expression value belongs to NC(=O)c1ccc(I)c([N+](=O)[O-])c1 ?
Ans: −0.46

----------
- Tested on: hepatocytes
- TEST DETAILS: RNA-seq of hepatocytes treated with Phase III failure compounds
- CONDITION PARAMETERS: gene SLC25A19; hepatocytes
Quick rule for you: RNA-seq results: SLC25A19 under -0.3 gets condition met, anything else gets condition not met.

C=CCNC1=C2C[C@@H](C)C[C@H](OC)[C@H](O)[C@@H](C)/C=C(\C)[C@H](OC(N)=O)[C@@H](OC)/C=C\C=C(/C)C(=O)NC(=CC1=O)C2=O	condition met
O=P(O)(NCCCl)NCCCl [Palifosfamide]	condition not met
Cn1cnc2c(F)c(Nc3ccc(Br)cc3Cl)c(C(=O)NOCCO)cc21	condition met
Cn1cc(C2=C(c3cn(C4CCN(Cc5ccccn5)CC4)c4ccccc34)C(=O)NC2=O)c2ccccc21	condition not met

Q: For CCN(CC)CCN(Cc1ccc(-c2ccc(C(F)(F)F)cc2)cc1)C(=O)Cn1c(SCc2ccc(F)cc2)nc(=O)c2c1CCC2 , is the recorded RNA-seq results: SLC25A19 below the cut-off of -0.3?
Ans: condition not met

Q: Hi there! Is RNA-seq results: SLC25A19 for CCOC(=O)N1c2ccc(C(F)(F)F)cc2[C@@H](N(Cc2cc(C(F)(F)F)cc(C(F)(F)F)c2)C(=O)OC)C[C@H]1CC below -0.3, do you know?
Ans: condition met

Q: Input NC(=O)c1ccc(I)c([N+](=O)[O-])c1 ; condition: RNA-seq results: SLC25A19 strictly below -0.3. Does it hold?
Ans: condition not met

Q: Lab note: confirm whether the reported RNA-seq results: SLC25A19 for this compound is below -0.3, equality not counting. compound: COc1cc2c(Oc3ccc4[nH]c(C)cc4c3F)ncnc2cc1OCCCN1CCCC1
Ans: condition not met

----------
- System: hepatocytes
- TEST DETAILS: RNA-seq of hepatocytes treated with Phase III failure compounds
- CONDITION PARAMETERS: gene FABP1; hepatocytes
OBSERVABLE: RNA-seq results: FABP1 expression
Answers are plain numbers.

Solved cases (4 shown):
Cn1cnc2c(F)c(Nc3ccc(Br)cc3Cl)c(C(=O)NOCCO)cc21	0.06
CCC(CC)[C@H](NC(C)=O)[C@@H]1[C@H](O)[C@@H](C(=O)O)C[C@H]1NC(=N)N.O.O.O [peramivir (trihydrate), peramivir]	−0.05
CCN(CC)CCN(Cc1ccc(-c2ccc(C(F)(F)F)cc2)cc1)C(=O)Cn1c(SCc2ccc(F)cc2)nc(=O)c2c1CCC2	0.07
COc1cc(Nc2ncc(F)c(Nc3ccc4c(n3)N(COP(=O)(O)O)C(=O)C(C)(C)O4)n2)cc(OC)c1OC	−0.33

Proceed to the following item.
Q: Lab note: need RNA-seq results: FABP1 expression for CCOC(=O)N1c2ccc(C(F)(F)F)cc2[C@@H](N(Cc2cc(C(F)(F)F)cc(C(F)(F)F)c2)C(=O)OC)C[C@H]1CC on hepatocytes, anyone have it?
Ans: 0.58

----------
- System: hepatocytes
- TEST DETAILS: RNA-seq of hepatocytes treated with Phase III failure compounds
- CONDITION PARAMETERS: gene BBOX1; hepatocytes
Where a name gives a salt, the structure may show the parent alone.
I'd be grateful if you could share measured BBOX1 expression, RNA-seq result for these entries.

Known BBOX1 expression, RNA-seq result results, listed for orientation:
COc1nc(C)cnc1NS(=O)(=O)c1cccnc1-c1ccc(-c2nnco2)cc1	−0.45
Fc1ccc(C(OCCN2CCN(CCCc3ccccc3)CC2)c2ccc(F)cc2)cc1 [Vanoxerine (dihydrochloride), Vanoxerine]	0.01

Give measured BBOX1 expression, RNA-seq result for every item shown.
1. C=CC(=O)Nc1cccc(Nc2nc(Nc3ccc(N4CCN(C(C)=O)CC4)cc3OC)ncc2C(F)(F)F)c1 [CO-1686 (Rociletinib), Rociletinib]
2. COc1nc(N)nc2c1ncn2[C@@H]1O[C@H](COP(=O)(N[C@@H](C)C(=O)OCC(C)(C)C)Oc2cccc3ccccc23)[C@@H](O)[C@@]1(C)O (stereo partly drawn)
3. CN(C)[C@@H]1C(O)=C(C(N)=O)C(=O)[C@@]2(O)C(O)=C3C(=O)c4c(O)c(NC(=O)CN5CCCC5)cc(F)c4C[C@H]3C[C@@H]12 [TP-434 (Eravacycline), Eravacycline]
4. CC(C)[C@H](O)C(=O)N[C@@H](C)C(=O)N[C@@H]1C(=O)N(C)CCc2ccccc21

Ans:
1. −0.45
2. −0.77
3. −0.06
4. −0.39

----------
Record form. Attribute: C10orf11 expression, RNA-seq result. Fill in for each entry.
- Tested on: hepatocytes
- TEST DETAILS: RNA-seq of hepatocytes treated with Phase III failure compounds
- CONDITION PARAMETERS: gene C10orf11; hepatocytes
Structures can show the parent of a compound that is named as a salt.
Answers are plain numbers.

Take a look at these entries with their results.
O=C(N[C@H]1CN2CCC1CC2)c1cc2cccc(Cl)c2s1 [EVP-6124 (hydrochloride) (encenicline), encenicline]	0.1
C=CC(=O)Nc1cccc(Nc2nc(Nc3ccc(N4CCN(C(C)=O)CC4)cc3OC)ncc2C(F)(F)F)c1 [CO-1686 (Rociletinib), Rociletinib]	0.1

Lab note: next compound to report on.
Q: Name the recorded C10orf11 expression, RNA-seq result for Cn1c(COP(=O)(NCCBr)NCCBr)cnc1[N+](=O)[O-] [TH-302 (Evofosfamide), Evofosfamide] .
Ans: −0.71
